Origin of values: PubChem BioAssay

Assay: differential killing of epithelial or mesenchymal cells, primary screen, imaging, PC-3E GFP, TEM4-18 mCherry, co-culture (AID 1345086);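 also: cells exposed to compound for 72 h before imaging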
Conditions: imaging cell counts, at 1 µM, actives lie on both sides, counts scaled to control wells, 1 = unselective
Activity calls are given as the source filed them.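 The calls were made as follows: active = compounds killing one labelled cell type while sparing the other, by normalised counts and ratio limits, not self-fluorescent; inactive = the rest.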
Log the outcome using a class from label 1 for active, label 0 for inactive

Kindly provide the recorded test outcome for the following compound: O=C(CC(=O)c1ccccc1)c1ccccc1
label 0

Hi team, can someone confirm the assay call for O=C(O)CCCN1C(=O)c2cccc3cccc(c23)C1=O ?
label 0

Write down the call the test reported for this compound. Item: O=c1c(O)c(-c2ccccc2)oc2cc(O)ccc12
label 0

Which result was noted for this compound in the test: CC1(C)C=Cc2cc3ccc(=O)oc3cc2O1
label 0

Entry C=CC1=C(C)/C(=C/c2[nH]c(Cc3[nH]c(/C=C4\NC(=O)C(C)=C4C=C)c(C)c3CCC(=O)O)c(CCC(=O)O)c2C)NC1=O : call = ?
label 0

Further cases:
Called result for CC1=C2C(O)C(=O)OC3CC4C(C)(C)C(=O)C=C[C@]4(C)C(CC1)[C@]23C (stereo partly specified)
label 0

# lookup: test call for COc1c(-c2coc3cc4c(cc3c2=O)CC(OC(C)=O)C(C)(C)O4)ccc2c1C=CC(C)(C)O2 (stereo unspecified)
label 0

Call for entry Cc1ccc2c(c1)CC[C@H]1CC(=O)CC[C@]21C :
label 0

What is the recorded call for this compound in the test? O=c1cc(-c2ccccc2)oc2cc(O)cc(O)c12
label 0

* * *

Test: differential killing of epithelial or mesenchymal cells, primary screen, imaging, PC-3E GFP, TEM4-18 mCherry, co-culture (AID 1345086);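 also: cells exposed to compound for 72 h before imaging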
Details: imaging cell counts, measured here: epithelial PC-3E GFP cell survival, at 1 µM
Bridge positions count the residues as written; N and C are the ends. Square brackets hold non-standard residues; d marks the D form. Peptide text beside a SMILES is read from it. * marks the point of attachment. Octanoyl(6-Me) = CCC(C)CCCCC(=O)*; Dab = NCC[CH](N)C(=O)O
Measurement Name: normalised cell number
Write the value as a bare number.

Field: example entries. Status: answers known.
Looking for the measured normalised cell number of O=S(=O)(O)CCCS(=O)(=O)O , can you help?
1.27

Returns the measured normalised cell number for the input compound. Input: COc1ccc(-c2cc(=O)c3c(O)cc(O)cc3o2)cc1O
1.34

# lookup: normalised cell number of CCC(C)CCCCC(=O)NC(CCN)C(=O)NC(C(=O)NC(CCN)C(=O)NC1CCNC(=O)C(C(C)O)NC(=O)C(CCN)NC(=O)C(CCN)NC(=O)C(CC(C)C)NC(=O)C(Cc2ccccc2)NC(=O)C(CCN)NC1=O)C(C)O (stereo not drawn) ({Octanoyl(6-Me)}-[Dab]T[Dab][Dab][Dab]FL[Dab][Dab]T; lactam 4-C; configuration not given here)
0.93

# lookup: normalised cell number of COc1cc2c(cc1OC)[C@@H]1C(=O)c3ccc4c(c3O[C@@H]1CO2)C=CC(C)(C)O4
0.9

Please give the measured normalised cell number for this compound: O=[N+]([O-])c1cccc2cn[nH]c12
1.44

More entries:
Need normalised cell number, item CC1(C)S[C@@H]2C(N3C(=O)[C@@H](c4ccccc4)NC3(C)C)C(=O)N2[C@H]1C(=O)O (stereo partly drawn)
0.94

Suppose we examine the compound C=C(C)[C@H]1COc2cc3oc(=O)ccc3cc2O1 ; what normalised cell number value has been reported?
1.17

# lookup: normalised cell number of O=c1c(-c2ccccc2)coc2cc(O)cc(O)c12
1.2
